target: Prostaglandin E2 receptor EP1 subtype (Rattus norvegicus, UniProt P70597); test: Antagonist activity at rat EP1 receptor expressed in African green monkey COS1 cells assessed as inhibition of prostaglandin-E2-induced increase in intracellular calcium level preincubated for 60 secs followed by prostaglandin-E2 addition measured for 60 secs by Fluo 4-AM dye based fluorescence assay
Sequence (P70597 whole entry): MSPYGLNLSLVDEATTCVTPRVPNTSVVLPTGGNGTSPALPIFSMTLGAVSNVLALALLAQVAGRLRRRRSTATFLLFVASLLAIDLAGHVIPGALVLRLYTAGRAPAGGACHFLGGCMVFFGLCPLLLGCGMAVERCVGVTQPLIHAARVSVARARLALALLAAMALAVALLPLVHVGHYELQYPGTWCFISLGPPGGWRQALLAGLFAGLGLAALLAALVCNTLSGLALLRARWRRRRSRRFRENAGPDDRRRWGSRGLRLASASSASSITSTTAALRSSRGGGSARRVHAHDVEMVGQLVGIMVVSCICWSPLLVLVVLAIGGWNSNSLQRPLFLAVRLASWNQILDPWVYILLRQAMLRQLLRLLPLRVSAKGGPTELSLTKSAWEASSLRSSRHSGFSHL
Note to self: use condition met only for IC50 readings below 300 nM; a reading exactly at 300 nM still gets condition not met.

Completed entries (count: 5):
smiles-str | cat
Cc1cc(C(=O)O)nn1Cc1cc(Cl)cc2sc(N3CCC3)nc12 | condition not met
O=C(O)c1ccc(Sc2cc(Cl)cc3sc(N4CC=CCC4)nc23)o1 | condition met
Cc1cc(C(=O)O)nn1Cc1cc(Cl)cc2sc(N3CCN(C)CC3)nc12 | condition not met
CC(=O)c1cc(Cn2nc(C(=O)O)cc2C)c2nc(N3CC=CCC3)sc2c1 | condition met
CNc1nc2c(Cn3nc(C(=O)O)cc3C)cc(Cl)cc2s1 | condition not met

Then there is this compound:
IN: is_below(IC50, 300 nM) for Cc1cc(C(=O)O)nn1Cc1cc(Cl)cc2sc(N3CCSCC3)nc12 ?
OUT: condition met
